System: Proteus mirabilis
Protocol Notes: MIC against Gram-negative bacteria: Proteus mirabilis
Format: cell-based
Condition Summary: 96-well plate, 5×10^5 CFU/mL, 37° C., 10 h
Readout Label: MIC against P. mirabilis (µg/mL)
Numbers only, in µg/mL.

Hi team, please reply with MIC against P. mirabilis for each item in this list.
1. PRT558 (CTCDPRGALDQLCGAGGLCRCRPGYTGTACQECSPGFHGFPSCVP; listed as Homo sapiens)
2. PRT448 (SFRCQCEPGFQLGPNNRSCVDVNE; listed as Homo sapiens)
3. PRT569 (CDCDLGGALNNSCFAESGQCSCRPHMIGRQC; listed as Homo sapiens)
4. PRT504 (CDCSGNVDPSEAGHCDSVTGECLKCLGNTDGAHCERCADGFYGDAVTAKNCRA; listed as Homo sapiens)

Response:
1: 50; 2: 25; 3: 12.5; 4: 12.5
